# Test system: HEK-293T
# testSummary: Multiplex assay against HEK293T
# Type: toxicity, cell-based
# statedConditions: human, 24 h, 1 µM, compound concentration 1 uM, replicate 1
Non-standard residues stand in square brackets, D forms with d. Residues, ends and D or L forms follow the SMILES beside them.
Item-by-item account of Population Tubulin-Different-Phenotype (%)
recordedMetric: Population Tubulin-Different-Phenotype (%)

{"compound": "Cc1nn(C)c2nc(NNC(=O)Nc3cc(Cl)nc(Cl)c3)cc(C(C)C)c12", "unitLabel": "%", "resultValue": 20}
{"compound": "CN1C[C@H](C(=O)N[C@]2(C)O[C@@]3(O)[C@@H]4CCCN4C(=O)[C@H](Cc4ccccc4)N3C2=O)C[C@@H]2c3cccc4[nH]cc(c34)C[C@H]21.CS(=O)(=O)O [DIHYDROERGOTAMINE MESYLATE]", "unitLabel": "%", "resultValue": 20}
{"compound": "CCn1c(-c2nc3cc(C(=O)N4CCCC(N)C4)ccc3n2C)cc2ccccc21.Cl (stereo not drawn)", "unitLabel": "%", "resultValue": 22}
{"compound": "CC(C)C[C@@H]1NC(=O)[C@@H](C(C)C)NC(=O)[C@@H]2CCCN2C(=O)[C@@H](CC(=O)O)NC(=O)[C@@H](Cc2c[nH]c3ccccc23)NC1=O [BQ-123] (cyclo(L[dW][dD]P[dV]))", "unitLabel": "%", "resultValue": 21}
{"compound": "Nc1nc(-c2ccco2)c2cnn(Cc3ccccc3F)c2n1", "unitLabel": "%", "resultValue": 26}
{"compound": "CCC(=O)OCC(=O)[C@@]1(OC(=O)CC)[C@@H](C)C[C@H]2[C@@H]3CCC4=CC(=O)C=C[C@]4(C)[C@@]3(Cl)[C@@H](O)C[C@@]21C [BECLOMETHASONE DIPROPIONATE]", "unitLabel": "%", "resultValue": 31}
{"compound": "Cl.Cl.OCCOCCN1CCN(C(c2ccccc2)c2ccc(Cl)cc2)CC1 (stereo not drawn) [HYDROXYZINE HYDROCHLORIDE]", "unitLabel": "%", "resultValue": 22}
{"compound": "CCCCCCNC(=O)Nc1ccc(S(=O)(=O)Nc2ccc(CCNC[C@H](O)COc3ccc(O)cc3)cc2)cc1", "unitLabel": "%", "resultValue": 20}
{"compound": "COc1cc(C(=O)N2CC[C@@H](O)[C@@H](N)C2)cc2nc(-c3cc4ccccc4n3CC3CC3)n(C)c12.Cl", "unitLabel": "%", "resultValue": 33}
{"compound": "COCCCN1CCC(NC(=O)c2cc(Cl)c(N)c3c2OCC3)CC1 [PRUCALOPRIDE]", "unitLabel": "%", "resultValue": 14}
{"compound": "COc1cc2nc(N3CCN(C(=O)COc4c(OC)cccc4C(C)C)CC3)nc(N)c2cc1OC.Cl.Cl", "unitLabel": "%", "resultValue": 19}
{"compound": "COc1cc(Nc2ncc3c(n2)-c2ccc(Cl)cc2C(c2c(F)cccc2OC)=NC3)ccc1C(=O)O", "unitLabel": "%", "resultValue": 31}
{"compound": "CSc1nc(NC2CCCC2)c([N+](=O)[O-])c(NC2CCCC2)n1", "unitLabel": "%", "resultValue": 19}
{"compound": "O=C(NCCNCC(O)COc1ccc(O)cc1)N1CCOCC1.O=C(NCCNCC(O)COc1ccc(O)cc1)N1CCOCC1.O=C(O)/C=C/C(=O)O (stereo not drawn) [XAMOTEROL FUMARATE]", "unitLabel": "%", "resultValue": 17}
{"compound": "Cc1cc(=O)n(C)c2cc(N3C(=O)CC[C@H](NS(=O)(=O)CC(C)C)[C@H]3c3ccc(Cl)cc3)ccc12", "unitLabel": "%", "resultValue": 19}
{"compound": "OCCCNc1cc(-c2ccnc(Nc3cccc(Cl)c3)n2)ccn1", "unitLabel": "%", "resultValue": 61}
{"compound": "CCc1nn2c(C)cc(C)nc2c1Cc1ccc(-c2nnc(C3CCNCC3)o2)cc1", "unitLabel": "%", "resultValue": 23}
{"compound": "COc1ccc2[nH]c(I)c(CCNC(C)=O)c2c1", "unitLabel": "%", "resultValue": 23}
